The measured values listed here are drawn from patent EP0118571A1.

The following compounds are shown together with reported inhibition at 10 µM values.
test-target: rat lens AR (RLAR) (Rattus norvegicus, UniProt P07943)
Construct: BLAR and RLAR were purified according to the method of Inagaki et al; from tissue; host or cells: rat (Wistar) lens
assay-text: Aldose reductase (AR) activity assay, rat lens AR (NADPH oxidation, DL-glyceraldehyde substrate)
Assay type: biochemical
experimental-parameters: inhibitor 10^-5M; 30°C, pH 6.2, 1 % propylene glycol; read-out: Inhibition against enzyme activity (%) RLAR 10^-5M
observed-property: inhibition at 10 µM (%)

>>> endpoint_result("COc1cc(-c2cc(=O)c3c(O)c(OC)c(OC)c(OC)c3o2)ccc1O")
40
>>> endpoint_result("C[C@@H]1O[C@@H](Oc2c(-c3ccc(O)c(O)c3)oc3cc(O)cc(O)c3c2=O)[C@H](O)[C@H](O)[C@H]1O")
84
>>> endpoint_result("COc1cc(-c2cc(=O)c3c(OC)c(O)c(OC)c(OC)c3o2)ccc1O")
58
>>> endpoint_result("COc1c(OC)c(OC)c2c(=O)cc(-c3ccc(O)c(O)c3)oc2c1OC")
97

====

test-target: bovine lens AR (BLAR) (Bos taurus, UniProt P16116)
Construct: BLAR and RLAR were purified according to the method of Inagaki et al; from tissue; host or cells: bovine lens
assay-text: Aldose reductase (AR) activity assay, bovine lens AR (NADPH oxidation, DL-glyceraldehyde substrate)
Format: biochemical
experimental-parameters: inhibitor 10^-6M; 30°C, pH 6.2, 1 % propylene glycol; read-out: Inhibition against enzyme activity (%) BLAR 10^-6M
observed-property: inhibition at 1 µM

>>> endpoint_result("COc1cc(-c2cc(=O)c3c(OC)c(O)c(OC)c(OC)c3o2)ccc1O")
"19%"
>>> endpoint_result("COc1c(OC)c(OC)c2c(=O)cc(-c3ccc(O)c(O)c3)oc2c1OC")
"90%"
>>> endpoint_result("C[C@@H]1O[C@@H](Oc2c(-c3ccc(O)c(O)c3)oc3cc(O)cc(O)c3c2=O)[C@H](O)[C@H](O)[C@H]1O")
"32%"
>>> endpoint_result("COc1cc(-c2cc(=O)c3c(O)c(OC)c(OC)c(OC)c3o2)ccc1O")
"19%"

====

test-target: rat lens AR (RLAR) (Rattus norvegicus, UniProt P07943)
Construct: BLAR and RLAR were purified according to the method of Inagaki et al; from tissue; host or cells: rat (Wistar) lens
assay-text: Aldose reductase (AR) activity assay, rat lens AR (NADPH oxidation, DL-glyceraldehyde substrate)
Assay type: biochemical
experimental-parameters: inhibitor 10^-6M; 30°C, pH 6.2, 1 % propylene glycol; read-out: Inhibition against enzyme activity (%) RLAR 10^-6M
The following compounds are shown together with reported inhibition at 1 µM values.
observed-property: inhibition at 1 µM

>>> endpoint_result("C[C@@H]1O[C@@H](Oc2c(-c3ccc(O)c(O)c3)oc3cc(O)cc(O)c3c2=O)[C@H](O)[C@H](O)[C@H]1O [quercitrin]")
"56%"
>>> endpoint_result("COc1cc(-c2cc(=O)c3c(O)c(OC)c(OC)c(OC)c3o2)ccc1O [Ref-2]")
"15%"
>>> endpoint_result("COc1cc(-c2cc(=O)c3c(OC)c(O)c(OC)c(OC)c3o2)ccc1O [Ref-1]")
"22%"
>>> endpoint_result("COc1c(OC)c(OC)c2c(=O)cc(-c3ccc(O)c(O)c3)oc2c1OC [LARI]")
"93%"
